# systemUnderTest: T1, human Fibroblast Activation Protein (FAP), soluble antigen (human, UniProt Q12884 26-760, biotinylated when immobilized on streptavidin sensors)
# T1 construct: also called hFAP; biotinylated FAP
# T1 sequence (Q12884 26-760 limits assumed): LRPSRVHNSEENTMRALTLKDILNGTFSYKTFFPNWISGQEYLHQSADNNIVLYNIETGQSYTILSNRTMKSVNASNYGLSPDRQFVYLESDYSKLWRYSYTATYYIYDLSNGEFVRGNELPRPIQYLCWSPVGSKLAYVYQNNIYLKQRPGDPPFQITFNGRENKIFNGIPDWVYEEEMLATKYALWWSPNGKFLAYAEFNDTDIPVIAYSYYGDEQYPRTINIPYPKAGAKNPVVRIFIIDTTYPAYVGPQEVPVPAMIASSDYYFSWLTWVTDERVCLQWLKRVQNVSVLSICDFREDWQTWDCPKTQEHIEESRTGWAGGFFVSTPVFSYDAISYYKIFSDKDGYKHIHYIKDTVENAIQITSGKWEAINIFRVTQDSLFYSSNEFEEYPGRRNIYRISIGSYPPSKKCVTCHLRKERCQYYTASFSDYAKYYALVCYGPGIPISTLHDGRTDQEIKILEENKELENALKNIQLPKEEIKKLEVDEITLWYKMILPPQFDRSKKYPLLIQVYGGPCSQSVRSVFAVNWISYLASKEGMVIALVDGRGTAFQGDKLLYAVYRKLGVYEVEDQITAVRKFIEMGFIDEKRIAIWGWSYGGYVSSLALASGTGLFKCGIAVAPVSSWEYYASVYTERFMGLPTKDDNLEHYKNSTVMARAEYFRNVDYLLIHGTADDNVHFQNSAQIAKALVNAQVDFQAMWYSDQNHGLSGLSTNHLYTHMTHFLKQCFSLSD
# methodDescription: BLI per 6.1.3, human FAP;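 also: biolayer interferometry with immobilized antigen on sensors, antibody association up to 240 s then dissociation up to 420 s, reference-subtracted, global 1:1 fit with unlinked Rmax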
Assign koff to each entry below.
One number for each entry, in s⁻¹.

Examples with their reported koff follow.
872-5 VH S52G/Q96L/VL T92R (antibody, V domains shown, BLI per 6.1.3) VH: EVQLVESGGGLVQPGGSLRLSCAASGFTFRGYIMSWVRQAPGKGLEWVSWIGPEGSRTGYADSVKGRFTISRDNSKNTLYLQMNSLRAEDTAVYYCARLLYGTWFDYWGQGTLVTVSS VL: DIQMTQSPSSLSASVGDRVTITCRASQSISSYLNWYQQKPGKAPKLLIYAASSLQSGVPSRFSGSGSGTDFTLTISSLQPEDFATYYCQQARLLLPTFGQGTKVEIKR :: 7.61e-05
872-5 VH Q96L (antibody, V domains shown) VH: EVQLVESGGGLVQPGGSLRLSCAASGFTFRGYIMSWVRQAPGKGLEWVSWISPEGSRTGYADSVKGRFTISRDNSKNTLYLQMNSLRAEDTAVYYCARLLYGTWFDYWGQGTLVTVSS VL: DIQMTQSPSSLSASVGDRVTITCRASQSISSYLNWYQQKPGKAPKLLIYAASSLQSGVPSRFSGSGSGTDFTLTISSLQPEDFATYYCQQATLLLPTFGQGTKVEIKR :: 0.000794
872-5 VL T92R (antibody, V domains shown, BLI per 6.1.3) VH: EVQLVESGGGLVQPGGSLRLSCAASGFTFRGYIMSWVRQAPGKGLEWVSWISPEGSRTGYADSVKGRFTISRDNSKNTLYLQMNSLRAEDTAVYYCARLQYGTWFDYWGQGTLVTVSS VL: DIQMTQSPSSLSASVGDRVTITCRASQSISSYLNWYQQKPGKAPKLLIYAASSLQSGVPSRFSGSGSGTDFTLTISSLQPEDFATYYCQQARLLLPTFGQGTKVEIKR :: 0.001

Below are 2 binders. Give each one its koff.
1. 872-5 VH S52G:VL A91G/T92R (antibody, V domains shown, BLI per 6.1.3) VH: EVQLVESGGGLVQPGGSLRLSCAASGFTFRGYIMSWVRQAPGKGLEWVSWIGPEGSRTGYADSVKGRFTISRDNSKNTLYLQMNSLRAEDTAVYYCARLQYGTWFDYWGQGTLVTVSS VL: DIQMTQSPSSLSASVGDRVTITCRASQSISSYLNWYQQKPGKAPKLLIYAASSLQSGVPSRFSGSGSGTDFTLTISSLQPEDFATYYCQQGRLLLPTFGQGTKVEIK
2. 872-5 VH S52G/Q96L:VL A91G/T92R (antibody, V domains shown, BLI per 6.1.3) VH: EVQLVESGGGLVQPGGSLRLSCAASGFTFRGYIMSWVRQAPGKGLEWVSWIGPEGSRTGYADSVKGRFTISRDNSKNTLYLQMNSLRAEDTAVYYCARLLYGTWFDYWGQGTLVTVSS VL: DIQMTQSPSSLSASVGDRVTITCRASQSISSYLNWYQQKPGKAPKLLIYAASSLQSGVPSRFSGSGSGTDFTLTISSLQPEDFATYYCQQGRLLLPTFGQGTKVEIKR

Key:
1: 0.00148; 2: 0.000178
